Examples of compounds with documented inhibition follow.
TARGET_UNDER_TEST: Ribosomal protein S6 kinase alpha-4 (Homo sapiens) (UniProt O75676);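 also: mean inhibition of MSK2, GSK PKIS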
Sequence (O75676 whole entry, looked up): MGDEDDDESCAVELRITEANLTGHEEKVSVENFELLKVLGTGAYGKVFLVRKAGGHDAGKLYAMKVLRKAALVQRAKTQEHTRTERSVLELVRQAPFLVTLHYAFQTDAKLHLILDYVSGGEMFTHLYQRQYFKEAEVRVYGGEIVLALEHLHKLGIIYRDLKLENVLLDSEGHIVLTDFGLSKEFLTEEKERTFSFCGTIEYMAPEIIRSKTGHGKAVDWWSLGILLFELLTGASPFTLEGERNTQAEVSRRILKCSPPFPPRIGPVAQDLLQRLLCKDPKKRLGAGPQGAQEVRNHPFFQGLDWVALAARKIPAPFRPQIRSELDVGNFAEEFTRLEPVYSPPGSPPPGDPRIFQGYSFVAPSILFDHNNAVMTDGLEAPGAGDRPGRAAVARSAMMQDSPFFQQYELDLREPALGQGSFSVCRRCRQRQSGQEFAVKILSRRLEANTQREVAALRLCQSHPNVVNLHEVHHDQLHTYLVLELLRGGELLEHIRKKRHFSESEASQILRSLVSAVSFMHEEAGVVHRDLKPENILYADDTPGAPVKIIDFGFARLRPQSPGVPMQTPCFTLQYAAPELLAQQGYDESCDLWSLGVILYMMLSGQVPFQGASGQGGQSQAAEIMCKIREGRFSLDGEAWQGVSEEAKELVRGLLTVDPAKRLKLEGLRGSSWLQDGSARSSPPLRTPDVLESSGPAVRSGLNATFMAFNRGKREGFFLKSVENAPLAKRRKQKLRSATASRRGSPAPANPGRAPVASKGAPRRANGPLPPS
TEST_CONDITIONS: at 1 µM

# RECORD_SMILES, inhibition (%)
rows = [
    ("CCn1cc(-c2ccnc3[nH]ccc23)c(-c2cccc(NC(=O)Nc3ccc(OCc4ccccc4)cc3)c2)n1", 0.39),
    ("COC(=O)c1sc(-n2cnc3cc(OC)c(OC)cc32)cc1OCc1ccccc1C(F)(F)F", 3.06),
    ("CS(=O)(=O)CCNCc1coc(-c2ccc3ncnc(Nc4ccc(OCc5ccccc5)cc4)c3c2)c1", 3.49),
    ("Cc1ccc(O)cc1Nc1ccnc2cc(-c3ccccn3)ccc12", 2.96),
    ("COC(=O)Nc1nc2ccc(S(=O)(=O)c3ccc(NC(=O)Nc4cc(C(F)(F)F)ccc4F)cc3)cc2[nH]1", 4.31),
    ("COc1ccc2c(-c3ccnc(Nc4cccc(OC(F)(F)F)c4)n3)cnn2n1", 7.19),
    ("N#Cc1c(NC(=O)c2ccc(F)cc2)sc2c1CCCC2", 2.25),
    ("Clc1ccc(-c2nn3ncccc3c2-c2ccnc(Nc3ccccc3)n2)cc1", 2.91),
    ("COc1ccc(-c2cc(-c3c[nH]nc3-c3ccccn3)ccn2)cc1", 4.77),
    ("Fc1cccc(COc2ccc(Nc3ncnc4sc(-c5ccco5)cc34)cc2Cl)c1", 1.61),
    ("c1ccc(COc2ccc(Nc3ncnc4ccc(-c5ccco5)cc34)cc2)cc1", 1.67),
    ("COc1cccc(-n2ncc3c(N/N=C/c4ccc(F)cc4)ncnc32)c1", 4.13),
    ("CCN1CCC(CC(=O)Nc2n[nH]c3nnc(-c4cccc(F)c4F)cc23)CC1", 1.55),
    ("CNC(=O)c1cccc(C#Cc2cncnc2Nc2ccc(OCc3cccc(F)c3)c(Cl)c2)c1", 1.97),
    ("[O-][S+]1CCN(Cc2ccc(-c3ccc4ncnc(Nc5ccc(OCc6cccc(F)c6)c(Cl)c5)c4c3)o2)CC1", 4.98),
    ("CCn1c(-c2nonc2N)nc2c(C#CC(C)(C)O)ncc(OC3CCNCC3)c21", 14.9),
    ("c1ccc(-c2nc3n(c2-c2ccc4c(c2)OCO4)CCC3)nc1", 6.79),
    ("COc1cccc(-c2c[nH]c3c(N/N=C/c4ccncc4)ncnc23)c1", 4.13),
    ("CNC(=O)c1cncc(/C=C/c2ccccc2Cl)c1", 1.78),
    ("Nc1ncc(-c2cccc(S(N)(=O)=O)c2)c2scc(-c3ccc(F)c(Cl)c3)c12", 2.86),
]
